Reference for the values: paper PMC2978110

target-entity: GST-E2F1 (UniProt Q01094 1-437)
Sequence (Q01094 whole entry): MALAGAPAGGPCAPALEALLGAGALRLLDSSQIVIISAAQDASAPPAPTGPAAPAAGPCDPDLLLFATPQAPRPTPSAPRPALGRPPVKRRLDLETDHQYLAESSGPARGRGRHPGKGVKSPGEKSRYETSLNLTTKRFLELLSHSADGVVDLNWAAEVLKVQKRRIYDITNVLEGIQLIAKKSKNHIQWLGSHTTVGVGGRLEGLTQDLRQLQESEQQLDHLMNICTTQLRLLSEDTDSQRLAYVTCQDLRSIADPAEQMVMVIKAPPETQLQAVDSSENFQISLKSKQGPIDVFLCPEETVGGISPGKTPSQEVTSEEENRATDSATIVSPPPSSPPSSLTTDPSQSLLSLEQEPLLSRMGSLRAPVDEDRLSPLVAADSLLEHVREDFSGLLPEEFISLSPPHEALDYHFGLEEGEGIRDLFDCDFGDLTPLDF
test-details: EMSA; EMSA as in ref 34 (buffer, pH, temperature not given); 1.8 ug GST-E2F1 per reaction, 24 ng/ul ds mutant adenovirus E2 E2F-site oligo as nonspecific competitor
applied-conditions: protein: recombinant; label: 32P; blunt

{"binder": "EBP1 -158* (dsDNA) DNA 1: GCTTAGGAAAAAAAGAGGCAGGCTGGGAATTGTAGTTC DNA 2: GAACTACAATTCCCAGCCTGCCTCTTTTTTTCCTAAGC", "binding result": "no binding"}
{"binder": "EBP1 -166 (both*) (dsDNA) DNA 1: TTAGGAAAAAAAGAGGCAGGCTGGGAATTGTAGTTCGAAGGCCCTCGAGAAAAAATAGAGTC DNA 2: GACTCTATTTTTTCTCGAGGGCCTTCGAACTACAATTCCCAGCCTGCCTCTTTTTTTCCTAA", "binding result": "no binding"}
